Entries and their Ligand-pharmacophore element distance, pharmacophore element CA5 values follow.
- tested.on: MASP-2 CCP2-SP (Homo sapiens (Human), UniProt O00187)
- Sequence (O00187 445-686): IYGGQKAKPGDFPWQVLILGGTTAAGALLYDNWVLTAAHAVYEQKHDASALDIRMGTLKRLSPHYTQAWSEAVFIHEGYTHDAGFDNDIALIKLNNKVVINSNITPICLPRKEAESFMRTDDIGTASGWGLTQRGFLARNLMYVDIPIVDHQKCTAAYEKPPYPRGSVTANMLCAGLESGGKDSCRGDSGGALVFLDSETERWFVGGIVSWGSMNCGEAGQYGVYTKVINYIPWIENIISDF
- Sequence (O00187 364-432 partner): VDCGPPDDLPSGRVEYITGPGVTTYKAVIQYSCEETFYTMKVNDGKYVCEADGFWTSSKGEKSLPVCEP
- assay.comment: MASP-2 co-crystallization, X-ray crystallography and structure analysis (H-bonds, van der Waals contacts);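 further: distance from averaged pharmacophore element to bound ligand; missing value means element absent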
- conditions.used: Table A4-1; element CA5
Form rule: numeric answer, no unit written next to it.

The following molecules have reported results that may help.
C[C@H](NC(=O)[C@H]1C[C@@H](c2ccccc2)CCN1)C(=O)NCc1cc(Cl)ccc1O.Cl [1078_6] : 0
C[C@H](NC(=O)[C@H]1Cc2c([nH]c3ccccc23)CN1)C(=O)NCc1ccc(C(=N)N)cc1.Cl.Cl [1097_2] : 1.1
CC(NC(=O)C(CCc1ccccc1)NCc1ccc(C(=O)N2CCOCC2)cc1)C(=O)NCc1ccc(C(=N)N)cc1.Cl.Cl (stereo not shown) [1153_A] : 0
Cc1nc(N)ccc1CNC(=O)C(C)NC(=O)[C@H]1C[C@H](c2cccc(-c3ccccc3)c2)CN1 (stereo in doubt) [compound 1360] : 1.11
Cc1nc(N)ccc1CNC(=O)[C@H](C)NC(=O)[C@H]1C[C@H](Cc2cccc(Cl)c2)CN1.Cl.Cl [1328_4] : 0
C[C@H](NC(=O)[C@H](N)C1Cc2ccccc2C1)C(=O)NCc1ccc2c(N)nccc2c1.Cl.Cl [1088_B] : 0

Q. Recall the recorded Ligand-pharmacophore element distance, pharmacophore element CA5 for C[C@H](NC(=O)[C@H]1C[C@@H](c2ccccc2)CCN1)C(=O)NCc1cnc2[nH]cc(Cl)c2c1 [compound 1433] with MASP-2 CCP2-SP (Homo sapiens (Human), UniProt O00187) and state it.
A. 0
